system: human CD33 S131D (human, UniProt P20138 18-364)
Sequence (P20138 18-364 S131D limits assumed): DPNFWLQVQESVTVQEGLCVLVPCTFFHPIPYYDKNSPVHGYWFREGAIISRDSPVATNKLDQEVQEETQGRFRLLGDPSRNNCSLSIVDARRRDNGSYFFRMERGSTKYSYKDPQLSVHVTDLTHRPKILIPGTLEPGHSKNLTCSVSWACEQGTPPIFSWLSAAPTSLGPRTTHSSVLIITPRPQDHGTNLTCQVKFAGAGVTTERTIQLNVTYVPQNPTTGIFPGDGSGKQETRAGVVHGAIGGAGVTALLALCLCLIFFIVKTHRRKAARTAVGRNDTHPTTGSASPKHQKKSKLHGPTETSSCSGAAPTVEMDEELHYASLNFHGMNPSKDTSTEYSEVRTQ
test-protocol: flow cytometry, HEK293-T, IgG;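 also: CD33 point mutants transiently expressed, antibody binding measured by fluorescence in duplicate, background subtracted and scaled to binding on wild-type CD33 as 100%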
observation-type: Mean % WT Binding (% WT binding)
# output: bare number, implied unit % WT binding

Recorded Mean % WT Binding, per entry:
Refmab #1 (antibody, human IgG1, V domains shown, tested in IgG format; also called hP67.6) VH: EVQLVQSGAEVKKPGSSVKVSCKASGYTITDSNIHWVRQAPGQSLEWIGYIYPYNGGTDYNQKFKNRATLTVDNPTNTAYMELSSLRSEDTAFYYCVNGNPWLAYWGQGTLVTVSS VL: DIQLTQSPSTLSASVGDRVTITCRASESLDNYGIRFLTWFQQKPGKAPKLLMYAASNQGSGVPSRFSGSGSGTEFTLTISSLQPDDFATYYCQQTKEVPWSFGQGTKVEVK :: 91.9
Refmab #3 (antibody, human IgG1, V domains shown, tested in IgG format) VH: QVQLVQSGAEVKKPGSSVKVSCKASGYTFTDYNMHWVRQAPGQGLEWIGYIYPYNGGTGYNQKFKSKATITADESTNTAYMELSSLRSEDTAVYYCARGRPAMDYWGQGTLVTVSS VL: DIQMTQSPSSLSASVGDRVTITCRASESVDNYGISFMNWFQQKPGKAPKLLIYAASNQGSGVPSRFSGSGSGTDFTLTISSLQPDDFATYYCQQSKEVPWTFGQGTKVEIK :: 93.9
Refmab #4 (antibody, human IgG1, V domains shown, tested in IgG format) VH: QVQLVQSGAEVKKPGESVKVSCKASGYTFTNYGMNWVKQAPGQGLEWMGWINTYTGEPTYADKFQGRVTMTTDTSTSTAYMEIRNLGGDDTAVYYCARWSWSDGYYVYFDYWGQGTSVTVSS VL: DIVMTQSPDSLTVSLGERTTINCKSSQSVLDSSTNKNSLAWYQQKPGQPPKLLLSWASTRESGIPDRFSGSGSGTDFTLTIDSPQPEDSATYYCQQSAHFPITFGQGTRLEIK :: 97.5

Switching to the query record.
Input: For the binder Refmab #2 (antibody, human IgG1, V domains shown, tested in IgG format) VH: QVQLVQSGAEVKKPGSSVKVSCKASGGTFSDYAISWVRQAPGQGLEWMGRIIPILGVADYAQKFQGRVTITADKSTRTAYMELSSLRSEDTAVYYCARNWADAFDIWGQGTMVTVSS VL: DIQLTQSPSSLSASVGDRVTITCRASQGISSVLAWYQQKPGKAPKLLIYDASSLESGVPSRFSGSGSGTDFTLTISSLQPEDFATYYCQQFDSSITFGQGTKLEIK , give its reported Mean % WT Binding.
Output: 101
